- study-system: KRAS G12C (GMPPNP-loaded) and PI3Ka (Ras-binding domain) interaction (Homo sapiens (Human), UniProt P01116, C118S/C51S/C80L/G12C)
- Sequence (P01116 other isoform, or with tags, fused parts or gaps G12C/C51S/C80L/C118S): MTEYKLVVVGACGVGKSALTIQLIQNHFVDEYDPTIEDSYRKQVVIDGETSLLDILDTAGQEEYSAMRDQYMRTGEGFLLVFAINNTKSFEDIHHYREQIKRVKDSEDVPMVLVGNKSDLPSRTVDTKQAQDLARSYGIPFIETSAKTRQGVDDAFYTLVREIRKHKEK
- protocol-summary: Inhibition of KRAS G12C and PI3Ka binding (AlphaScreen)
- particulars: KRAS G12C loaded with GMPPNP, PI3Ka RBD, 2 hours preincubation; read-out: PI3K RBD K-Ras IC50
reported-metric: IC50

// worked examples, IC50 included
1. Cc1cc(N)nc(-c2ncc3c(N4CCN(C(=O)/C=C/CN5CCOCC5)[C@@H](CC#N)C4)nc(OC[C@@]45CCCN4C[C@H](F)C5)nc3c2F)c1C(F)(F)F
0.01 to 0.1 µM
2. C[C@H]1CN(C/C=C/C(=O)N2CCN(c3nc(OC[C@@]45CCCN4C[C@H](F)C5)nc4c(F)c(-c5cccc6ccc(F)c(Cl)c56)ncc34)C[C@@H]2CC#N)C[C@H](C)O1
< 0.01 µM
3. CCc1c(F)ccc2cccc(-c3ncc4c(N5CCN(C(=O)/C=C/CN6CCOCC6)[C@@H](CC#N)C5)nc(OC[C@@]56CCCN5C[C@H](F)C6)nc4c3F)c12
< 0.01 µM
4. Cc1nsc(/C=C/C(=O)N2CCN(c3nc(OC[C@@]45CCCN4C[C@H](F)C5)nc4c3C[C@@H](C)[C@H](c3nc(N)cc(C)c3C(F)(F)F)C4)C[C@@H]2CC#N)n1
< 0.01 µM

Give IC50 for each of the items listed below.
1. Cc1nsc(/C=C/C(=O)N2CCN(c3nc(OCC45CCCN4CCC5)nc4c(F)c(-c5cccc6ccc(F)c(Cl)c56)ncc34)C[C@@H]2CC#N)n1
2. C[C@@H]1CN(C/C=C/C(=O)N2CCN(c3nc(OC[C@@]45CCCN4C[C@H](F)C5)nc4c(F)c(-c5cccc6ccc(F)c(Cl)c56)ncc34)C[C@@H]2CC#N)C[C@H](C)O1
3. CC(C)(C)c1noc(/C=C/C(=O)N2CCN(c3nc(OC[C@@]45CCCN4C[C@H](F)C5)nc4c3CCN(c3cccc5cccc(Cl)c35)C4)C[C@@H]2CC#N)n1
4. N#CC[C@H]1CN(c2nc(OCC34CCCN3CCC4)nc3c2CCN(c2cccc4cccc(Cl)c24)C3)CCN1C(=O)/C=C/c1nc(C2CC2)no1
5. N#CC[C@H]1CN(c2nc(OC[C@@]34CCCN3C[C@H](F)C4)nc3c(F)c(-c4cccc(Cl)c4C(F)(F)F)ncc23)CCN1C(=O)/C=C/CN1CCCOCC1

OUTPUT:
1: < 0.01 µM; 2: < 0.01 µM; 3: 0.01 to 0.1 µM; 4: 0.01 to 0.1 µM; 5: < 0.01 µM

Give IC50 for each of the items listed below.
1. N#CC[C@H]1CN(c2nc(OC[C@@]34CCCN3C[C@H](F)C4)nc3c(F)c(-c4cccc5cccc(Cl)c45)ncc23)CCN1C(=O)/C=C/CN1CCSCC1
2. CCc1nccc(/C=C/C(=O)N2CCN(c3nc(OC[C@@]45CCCN4C[C@H](F)C5)nc4c(F)c(-c5cccc6ccc(F)c(Cl)c56)ncc34)C[C@@H]2CC#N)n1
3. CC(C)(C)c1noc(/C=C/C(=O)N2CCN(c3nc(OCC45CCCN4CCC5)nc4c3CCN(c3cccc5cccc(Cl)c35)C4)C[C@@H]2CC#N)n1

OUTPUT:
1: < 0.01 µM; 2: < 0.01 µM; 3: 0.01 to 0.1 µM
